System: T-47D breast
Experiment: NCI tumour cell line growth inhibition, 48 h
Where a SMILES comes first, the peptide text is derived from it. [ ]: non-standard residue; d: D form. The star is where a group is joined. ξ: configuration not given here. ξF = NC(Cc1ccccc1)C(=O)O; Cbz = O=C(OCc1ccccc1)*
measuredEndpoint: TGI

# compound, experimentalResult
data = [
    ("[O]=[V]([OH])([OH])[OH]", "> 100 µM"),
    ("CC(SC(=S)N1CCOCC1)C(=O)Nc1nnc(-c2ccc(Cl)cc2)o1 (stereo unspecified)", "> 100 µM"),
    ("N#Cc1sc2nc3ccccc3n2c1N", "> 100 µM"),
    ("CCOC(=O)CNC(=O)C(Cc1ccccc1)NC(=O)OCc1ccccc1 (stereo unspecified) (Cbz-[ξF]-Gly-OEt)", "> 100 µM"),
    ("CC1(C)O[C@@H]2[C@@H](COC(C)(C)O[C@H]2C2SCCCS2)O1", "> 100 µM"),
    ("CC(C)[C@@H]1CC[C@]2(CO2)[C@@H]2C(=O)OCC(C(=O)O)=C[C@H]21", "> 100 µM"),
    ("CCO/C=C1\\SC(=S)N(c2ccc(OCC)cc2)C1=O", "> 100 µM"),
    ("CN(NC1=NCCO1)c1ccc2ccccc2c1", "> 100 µM"),
]

Q: What does the data say about its TGI? Entry: COC(=O)/C=C/c1ccc(OP(=O)(O)O)c(OC)c1
A: > 100 µM

Q: What does the data say about its TGI? Entry: O=C(c1cccs1)c1c(C(F)(F)F)n([O-])c2cc(Cl)c(Cl)cc2[n+]1=O
A: 4.94 µM

Q: What does the data say about its TGI? Entry: CCCCCC(=O)O[C@]1(C(C)=O)CCC2C3CCC4=CC(=O)CC[C@]4(C)C3CC[C@@]21C (stereo partly specified)
A: 25.7 µM
